- Target: PAI-1 (Homo sapiens)
- Sequence (P05121 24-402): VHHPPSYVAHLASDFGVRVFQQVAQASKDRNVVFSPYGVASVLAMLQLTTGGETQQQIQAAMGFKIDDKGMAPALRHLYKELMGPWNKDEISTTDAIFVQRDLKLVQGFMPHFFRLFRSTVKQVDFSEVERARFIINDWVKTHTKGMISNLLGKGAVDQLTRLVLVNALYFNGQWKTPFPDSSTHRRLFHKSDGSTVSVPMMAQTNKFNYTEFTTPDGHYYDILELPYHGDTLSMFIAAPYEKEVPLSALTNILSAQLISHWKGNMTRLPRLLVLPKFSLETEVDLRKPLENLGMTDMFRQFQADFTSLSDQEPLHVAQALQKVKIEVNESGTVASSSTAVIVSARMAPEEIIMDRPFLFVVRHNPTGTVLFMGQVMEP
- Assay text: PAI chromogenic substrate assay (first S2251 assay, tPA/plasminogen system)
- Format: biochemical
- Applied conditions: Concentration 100 μm
Measurement kind: Inhibition of PAI-1 in the first S2251 chromogenic substrate assay (%)

| Molecule | Target | Numeric value |
| --- | --- | --- |
| COc1ccc(/C=c2\[nH]c(=O)/c(=C/c3ccc4ccccc4c3)[nH]c2=O)cc1 [Compound 27] | PAI-1 (Homo sapiens) | 70 |
| COc1ccc(/C=c2\[nH]c(=O)/c(=C/c3ccc(OC(C)=O)cc3)[nH]c2=O)cc1 [Compound 37] | PAI-1 (Homo sapiens) | 69 |
| CC(=O)Nc1ccc(/C=c2\[nH]c(=O)/c(=C/c3ccc(CNC(=O)OC(C)(C)C)cc3)[nH]c2=O)cc1 [Compound 68] | PAI-1 (Homo sapiens) | 63 |
| Nc1ccccc1/C=c1\[nH]c(=O)/c(=C/c2ccccc2)[nH]c1=O [Compound 39] | PAI-1 (Homo sapiens) | 67 |
| CN(C)CCCOc1ccc(/C=c2\[nH]c(=O)/c(=C/c3ccccc3)[nH]c2=O)cc1 [Compound 98] | PAI-1 (Homo sapiens) | 72 |
| COc1ccc(/C=c2\[nH]c(=O)/c(=C/c3ccc(O)cc3)[nH]c2=O)cc1 [Compound 36] | PAI-1 (Homo sapiens) | 71 |
| COc1ccc(/C=c2\[nH]c(=O)/c(=C/c3ccc(C(N)=O)cc3)[nH]c2=O)cc1 [Compound 80] | PAI-1 (Homo sapiens) | 53 |
